The entries below come with measured protein stability index values attached.
B1: PTPRD (parent)
chain: PVVSMDLDPQPITDEEEGLIWVVG

variants of: B1; assay: protein stability index of a GFP-peptide fusion (GPS, HEK-293T) (PSI 1-6); higher = more stable; conditions: c terminus: a fixed tail appended;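 further: lentivirally expressed fusions sorted by FACS into six bins by GFP to DsRed ratio, PSI derived from sequencing read proportions per bin multiplied by bin number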
OBSERVATION TYPE: protein stability index

>>> readout_value("Q10W")
3.8
>>> readout_value("I20G")
4.92
>>> readout_value("V23D")
5.36
>>> readout_value("G18S")
3.98
>>> readout_value("T13N")
3.87
>>> readout_value("S4Q")
4.02
>>> readout_value("D14S")
4.05
>>> readout_value("M5L")
3.97
>>> readout_value("I20P")
5.16
>>> readout_value("I12C")
3.66
>>> readout_value("E16T")
2.87
>>> readout_value("E17K")
3.12
>>> readout_value("P9T")
4.18
>>> readout_value("E16S")
3.36
>>> readout_value("P9C")
3.67
>>> readout_value("Q10M")
3.88
>>> readout_value("T13V")
3.58
>>> readout_value("Q10R")
3.89
>>> readout_value("V23L")
3.06
>>> readout_value("P1T")
2.22
>>> readout_value("V22Q")
4.63
>>> readout_value("Q10I")
4.09
>>> readout_value("D6L")
3.35
>>> readout_value("M5K")
4.64
>>> readout_value("G24H")
3.87
>>> readout_value("E17D")
4.26
>>> readout_value("I12H")
4.07
>>> readout_value("M5V")
3.92
>>> readout_value("M5S")
3.77
>>> readout_value("E15K")
3.16
>>> readout_value("S4L")
2.89
>>> readout_value("V3Y")
3.88
>>> readout_value("L19V")
3.56
>>> readout_value("W21C")
4.69
>>> readout_value("V3D")
3.91
>>> readout_value("V23Y")
4.4
>>> readout_value("D14R")
2.31
>>> readout_value("D6Q")
3.5
>>> readout_value("G24L")
1.51
>>> readout_value("I20S")
4.64
>>> readout_value("W21S")
5.43
>>> readout_value("Q10C")
3.08
>>> readout_value("E16A")
3.22
>>> readout_value("P1H")
3.02
>>> readout_value("V22S")
4.7
>>> readout_value("G24S")
3.36
>>> readout_value("G24Q")
3.55
>>> readout_value("P1D")
4.28
>>> readout_value("G18C")
2.63
>>> readout_value("D8C")
2.61
>>> readout_value("V2P")
4.05
>>> readout_value("S4R")
3.82
>>> readout_value("P9Y")
3.41
>>> readout_value("T13Y")
2.9
>>> readout_value("P1G")
3.77
>>> readout_value("P1R")
2.62
>>> readout_value("W21F")
4.08
>>> readout_value("E17T")
3.31
>>> readout_value("L7S")
4.33
>>> readout_value("P9D")
4.52
>>> readout_value("D6E")
4.24
>>> readout_value("S4H")
3.31
>>> readout_value("V3F")
3.86
>>> readout_value("I12D")
4.52
>>> readout_value("I20L")
2.99
>>> readout_value("P1V")
1.86
>>> readout_value("D8T")
3.61
>>> readout_value("E15Q")
3.77
>>> readout_value("I20N")
4.31
>>> readout_value("G24Y")
3.09
>>> readout_value("I20E")
5.35
>>> readout_value("L7N")
4.74
>>> readout_value("T13W")
2.47
>>> readout_value("L7Y")
4.27
>>> readout_value("V2E")
4.23
>>> readout_value("L19F")
3.65
>>> readout_value("V22T")
4.26
>>> readout_value("G24K")
4.06
>>> readout_value("V22R")
3.89
>>> readout_value("V22E")
5.47
